Here we list molecules with their recorded IC50 when tested on endothelial lipase (EL) (Homo sapiens (Human), UniProt Q9Y5X9).
Sequence (Q9Y5X9 21-500): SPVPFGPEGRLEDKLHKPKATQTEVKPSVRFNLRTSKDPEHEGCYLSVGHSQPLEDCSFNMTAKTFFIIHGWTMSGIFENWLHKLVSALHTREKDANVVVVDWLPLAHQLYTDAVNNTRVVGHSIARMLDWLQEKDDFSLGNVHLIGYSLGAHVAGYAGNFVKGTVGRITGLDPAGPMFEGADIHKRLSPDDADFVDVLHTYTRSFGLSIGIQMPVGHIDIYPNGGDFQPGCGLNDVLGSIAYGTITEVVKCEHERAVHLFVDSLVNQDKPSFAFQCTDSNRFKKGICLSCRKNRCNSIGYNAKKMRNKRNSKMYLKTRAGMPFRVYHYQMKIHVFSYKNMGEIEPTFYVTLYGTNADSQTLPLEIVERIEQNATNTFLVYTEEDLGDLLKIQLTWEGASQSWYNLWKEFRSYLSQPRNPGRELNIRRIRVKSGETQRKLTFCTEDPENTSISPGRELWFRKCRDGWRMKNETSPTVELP

CC(C)NC(=O)NC(c1nnc(CNS(N)(=O)=O)o1)c1nc2ccc(-c3ccccc3)cc2s1 (stereo not shown); < 0.01 µM
NS(=O)(=O)NCc1nnc(C(NC(=O)c2ccc(C(F)(F)F)cc2)c2nc3ccc(-c4ccc(F)nc4)cc3s2)o1 (stereo not shown); < 0.01 µM
CC(=O)NC(c1nnc(C2CN(CC(C)(C)C)C2)o1)c1nc2ccc(-c3ccccc3)cc2s1 (stereo not shown); 0.017 µM

# input for lookup
Data request: Lab request: please report IC50 under test system endothelial lipase (EL) (Homo sapiens (Human), UniProt Q9Y5X9) for CC(=O)NC(c1nnc(CC2SC(=O)NC2=O)o1)c1nc2ccc(-c3ccc(F)nc3)cc2s1 (stereo not shown)
Data returned: < 0.01 µM
